assay: yeast display, Sf9 membrane polyspecificity reagent, FACS + sequencing; frameworks hold sequencing errors
experimental_readout: polyreactivity (PSR sort gate)

See these solved cases before continuing.
QVQLVESGGGLVQAGGSLRLSCAASGFTFIQYAMGWYRPAPGKERELVAAMTWSGGRTYYADSVKGRFTISRDNAKNTVYLHMNSLKPEDTAVYYCAKPFNIWGQGTKVTVSS | high polyreactivity
QVQLVESGGGLVQAGGSLSLTCAASGRTFESNAMGWYRQAPGKERELVAVITSGGITNYTDSVKGRFTISRDNAKNTVYLQLNSLKPVDTAVYYCEFYYWGQGTQVTVSS | low polyreactivity
QVQLVESGGGLVQAGGSLRLSCAASGSTFSTYAMGWYRQAPGKERELVAVITWRGGSTYYADSVKGRFTISRDNAKNTVYLQMNSLKPEDTAVYYCAAEGESPEYDYWGQGTQVTVSS | low polyreactivity
QVQLVESGGGLVQAGGSLRLSCAASGITLYRYVMGWYRQAPGKERELVADISGRGTSTYYADSVKGRFTISRDNAKNTVYLQMNSLKPEETAVYYCNAEYTKTGALVIPYTYYYAEDYWGQGTQVTVSS | low polyreactivity
QVQLVESGGGLVQAGGSLRLSCAASGSTFYPYAMGWYRQAPGKERELVAAISSRDGRTYYADSVKGRFTISRDNAKNTVYLQMNSLKPEDTAVYYCAASSFNNGHRYDYWGQGTQVTVSS | high polyreactivity

Specify measured polyreactivity (PSR sort gate) for QVQLVESGVGLVQAGGSLRLSCAASGSIFLTYDMGWYRPAPGKERELVAAITGSGDSTYYADSVKGRFTISRDNAKNTVYLQMNSLKPEDTAVYYCNTLVGVDFWLVDYWGQGTQVTLSS .
low polyreactivity

Specify measured polyreactivity (PSR sort gate) for QVHLVESGGGLVQAGGSLRLSCADSGRIFYQYAMGWYRQQPGKESELVARITSGGGTNYADSVKGRFSISRDNAKYTVYLQMNSLKPEDTAVYYCAAGPWYYSYPDYYWGQGTQVTVSS .
high polyreactivity

Specify measured polyreactivity (PSR sort gate) for QVQLVESGGGLVQAGGSLRLSCAASGRTFYYYAMGWYRQAPGKERELVAAITGSGANTYYADSVKGRFTISRDNAKNTVYLQMNSLKPEDTAVYYCNTRTLVAMGYWGQGTQVTVSS .
high polyreactivity

Specify measured polyreactivity (PSR sort gate) for QVQLVESGGGLVQAGGSLRLSCAASGSIFKRYAMGRYRQAPGKERELVAAISYSGTSTYYADSVKGRFTISRDTAKNTVYLQMNSLKPEDTAVYYCNKVPGYRHYLGYPGRYGYWGQGTQVTVSS .
high polyreactivity

Specify measured polyreactivity (PSR sort gate) for QVQLVESGGGLVQAGGSLRLSCAASGYIFAENAMGWYRQAPGKERELVATITYIGGSTHYADSVKGRFTISRDNAKNTVYLQMNSLKPEDTAVYYCNADNSTYYRSDFGYWGQGTQVTVSS .
low polyreactivity

Specify measured polyreactivity (PSR sort gate) for QVQLVESGGGLVQAGGSLRLSSAASGSTFSLYTMGWYRQEPGKERELVAAITWTGGSTYYADSVKGRFTISRDNAKNTVYLQMNSLKPEDTAVYYCAAVSRLTGSRESQLIRSRMYYWGQGTQVTVSS .
high polyreactivity

###

experiment: yeast display, Sf9 membrane polyspecificity reagent, FACS + sequencing; frameworks hold sequencing errors
experimental_readout: polyreactivity (PSR sort gate)

See these solved cases before continuing.
QVQLVESGGGLVRAGGSLRLSCAASGSIFKYYAMGWYRQAPGKDRELVAAISWSGGSTFYADSVKGRFTISRDNAKNTVYLQMNSLKPEDTAVFYCARYKLRSGRSGDHDVYWGQGTQVTVSS | high polyreactivity
QVQLVESVGGLVQAGGSLRLSCAASGSIFVNNAMGWYRQAPGKERELVAAISSRSSRTFYADSVKGRFTISRDNAKNTVYLQINSLKPEDTAVYYCNAVGGRKFGEYDYWGQGTQVTVSS | high polyreactivity
QVQLVESGGGLVQAGGSLRLSCAASGSTFIFNAMGWYRQAPGKERELVAGISSGSTYYADSVKGRFTISRDNAKNTVYLQMNSLIPEDTAVYSCATKLRRWRFYAAYDYWGQGTQVTVSS | high polyreactivity
QVQLVESGGGLVQAGGSLRLSCAASGSTLAVYAMGWYRQAPGKEREFVAAISWSGVSTYYADSVKGRFTISRDNAKNTVYLQMNSLKPEDTAVYYCAAKRVRALYGGSEGGYWGQGTQVTVSS | low polyreactivity
QVQLVESGGGLVQAGGSLRLSCAASGSIFGVYAMGWYRQAPGKERELVAAISSRGSSTYYADSVKGRFTISRDNAKNTVYLQMNSLKPEDTAVYYCAARPGIRSYPPGYGYWGQGTQVTVSS | high polyreactivity
QVQLVDSGGGLVQAGGSLRLNFAASGLTFDRYGMGWYRQGPGKERELVAAIDGSGTSTYYADSVKGRFTISRDNAKNTVYLQMNSLKPEDTAVYYCAAGALSWYDYWGQGTQVTVSS | low polyreactivity
QLQLVESGGGLVQAGGSLRLSCAASGLTYEGYAMGWYRQAPGKERELVAAITGSGSTTYYADSVKGRFTISRDNAKNTVYLQMNSLKPEDSAVYYCAADVSYKLYWGQGTQVTVSS | low polyreactivity
QVQLVESGGGLVQAGGSLRLSCAASGLTFRDNAMGRYRQAPGKERELVATINSGGSTDYADSVKGRFTISRDNAKNTVYLQMNSLKPEDTAVYYCAVSREYYDRGWYSIFYWYVYWGQGTQVTVSS | low polyreactivity
QVQLLESGGGLVQAGGSLRLSCAASGSIFDGYGMGWYRQAPGKERELVAGITSGGSTYYADSVKGRFTISRDTAKNTVYLQMNSLKPEDTAVYYCATVVRYSNARGDYWGQGTQVTVSS | low polyreactivity
QVQLVESGGGLVQAGGSLRLSCAASGLIFVKNTMGWYRQAPGKERELVAGISQRGGSTYYADSVKGRFTISRDNAKNSVYLQMNILKPEDTAVFYCAAYSRTFEGHRGGYWGQGTQVTVSS | high polyreactivity

Specify measured polyreactivity (PSR sort gate) for QDQLVESAGGLVQAGGSLRLSCAASVITFVRYVMGWYRQAPGKEREFVARIRWRGGSTNYADSVKGRFTISRDNAKNTVYLQMNSLKPEDTAVYYCNAVRRASSGYDYWGQGTQVTVSS .
high polyreactivity
